Assay: BSK_3C_TissueFactor: BioMAP Diversity Plus: 3C Assay for Tissue Factor Biomarker Activity (AID 2282997)
Conditions: BioMAP 3C HUVEC, tissue factor biomarker readout; actives raise or lower the signal
Activity calls are given as the source filed them. How the source made its calls: active means hit-call score of the fitted dose curve at least 0.9, where 1 is the maximum; inactive means score below 0.9.
Select the correct class. Options are active, inactive and nothing else.

compound | assigned_class
O=Nc1ccc(O)cc1 | inactive
CCO[Si](CCCN=C=O)(OCC)OCC | inactive
CCCCNc1ccc(NCCCC)c2c1C(=O)c1ccccc1C2=O | inactive
c1ccc(-c2ccccn2)nc1 | inactive

Q. Write down the call the test reported for this compound. Item: CCCCCCCCc1ccc(Nc2ccc(CCCCCCCC)cc2)cc1
A. inactive

Q. Try this compound too: N#[N+]c1ccc2c(S(=O)(=O)[O-])cccc2c1O
A. inactive

Q. What do you have for CN1C(=O)N(C)C(O)C1O (stereo not drawn) ?
A. inactive

Q. C=CC(=O)OCC(Br)CBr (stereo not drawn) ?
A. active

These data points were gathered from PubChem BioAssay (EPA / NIEHS).
